The following sequences are shown together with reported Classification values.
Target: KIAA0807(S) (PDZ Domain 1) (Homo sapiens)
Construct: made in house; host or cells: E. coli (DH5alpha, BL21 or JM109)
Sequence (Q6P0Q8 with tags, fused parts or gaps): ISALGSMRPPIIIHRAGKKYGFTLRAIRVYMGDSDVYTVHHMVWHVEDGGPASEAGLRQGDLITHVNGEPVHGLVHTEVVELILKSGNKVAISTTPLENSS
Assay: G' assay and Kd titration, TABLE 12
Assay type: binding
Conditions: A450 nm class of biotinylated PL peptide bound; 0 in conc columns = peptide 10 uM, protein 5 ug/ml
Ends that are not written are not given here. * marks the point of attachment. Biotin = O=C1N[C@H]2[C@H](CS[C@H]2CCCCC(=O)*)N1
measured-attribute: Classification

• KKGTYLTDETHREVKFTSL (Biotin-KKGTYLTDETHREVKFTSL) [CD46] = 5 (A450 nm of 4 more than 2× repeated)
• ARHRVTSYTSSSVNVSSNL (Biotin-ARHRVTSYTSSSVNVSSNL) [IL-8RB] = 1 (A450 nm 0-1)
• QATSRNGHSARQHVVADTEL (Biotin-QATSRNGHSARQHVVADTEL) [CD34] = 3 (A450 nm 2-3)
• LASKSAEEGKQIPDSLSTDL (Biotin-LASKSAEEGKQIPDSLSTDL) [Dock2] = 4 (A450 nm 3-4)

###

Target: PDZ protein (GST-PDZ fusion) (Homo sapiens)
Construct: made in house; host or cells: E. coli (DH5alpha, BL21 or JM109)
Sequence (Q02410 1-837): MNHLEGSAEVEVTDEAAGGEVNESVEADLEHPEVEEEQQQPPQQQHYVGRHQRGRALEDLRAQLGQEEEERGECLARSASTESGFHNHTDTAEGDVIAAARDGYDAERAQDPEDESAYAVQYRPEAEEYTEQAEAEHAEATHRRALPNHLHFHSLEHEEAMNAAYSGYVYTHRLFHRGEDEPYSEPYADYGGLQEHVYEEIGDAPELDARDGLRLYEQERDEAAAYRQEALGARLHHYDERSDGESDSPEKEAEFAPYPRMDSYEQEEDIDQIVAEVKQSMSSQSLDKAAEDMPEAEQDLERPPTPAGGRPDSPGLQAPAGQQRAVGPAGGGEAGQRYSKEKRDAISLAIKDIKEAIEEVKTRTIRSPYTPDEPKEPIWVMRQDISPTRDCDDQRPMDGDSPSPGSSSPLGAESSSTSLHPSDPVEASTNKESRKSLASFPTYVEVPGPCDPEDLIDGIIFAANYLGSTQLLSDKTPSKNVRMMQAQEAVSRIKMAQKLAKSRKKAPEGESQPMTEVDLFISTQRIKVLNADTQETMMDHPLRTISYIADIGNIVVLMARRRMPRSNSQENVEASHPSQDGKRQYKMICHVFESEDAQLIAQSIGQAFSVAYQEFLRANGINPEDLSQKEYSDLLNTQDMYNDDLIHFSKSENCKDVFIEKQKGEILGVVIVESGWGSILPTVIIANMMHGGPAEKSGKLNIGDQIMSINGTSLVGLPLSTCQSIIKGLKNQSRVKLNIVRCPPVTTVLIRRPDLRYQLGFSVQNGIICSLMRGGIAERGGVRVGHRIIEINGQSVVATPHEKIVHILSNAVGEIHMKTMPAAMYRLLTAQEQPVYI
Test: G' assay (10 uM PL peptide), results of TABLE 7 and TABLE 12
Assay type: binding
Conditions: PDZ Mint 1, PDZ Domain 2
Ends that are not written are not given here. * marks the point of attachment. Biotin = O=C1N[C@H]2[C@H](CS[C@H]2CCCCC(=O)*)N1
The following substances are shown together with reported Classification values.
measured-attribute: Classification

- KKGTYLTDETHREVKFTSL (Biotin-KKGTYLTDETHREVKFTSL) [CD46]: 1 (A450 nm 0-1)
- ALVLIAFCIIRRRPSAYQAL (Biotin-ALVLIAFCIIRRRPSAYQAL) [CD68]: 2 (A450 nm 1-2)
- A2AC_HUMAN (Modified) (Biotin-DFRPSFKHILFRRARRGFRQ; not fully specified): 3 (A450 nm 2-3)
- INSVGSTASSSQPLLVHDDV (Biotin-INSVGSTASSSQPLLVHDDV) [c-kit receptor]: 1 (A450 nm 0-1)
- RIAYSLLGLKDQVNTVGIPI (Biotin-RIAYSLLGLKDQVNTVGIPI) [ephrin A2]: 1 (A450 nm 0-1)
- SYPTPRPYPKPAPSSGKDYV (Biotin-SYPTPRPYPKPAPSSGKDYV) [claudin 1]: 1 (A450 nm 0-1)
- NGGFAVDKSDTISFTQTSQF [glutamate transporter 3]: 1 (A450 nm 0-1)
- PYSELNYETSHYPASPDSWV (Biotin-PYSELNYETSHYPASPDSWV) [catenin - delta 2]: 3 (A450 nm 2-3)
- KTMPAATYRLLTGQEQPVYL (Biotin-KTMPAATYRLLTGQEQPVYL) [MINT-3]: 2 (A450 nm 1-2)
- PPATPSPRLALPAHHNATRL (Biotin-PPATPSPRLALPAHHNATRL) [Na+/Pi cotransporter 2]: 1 (A450 nm 0-1)

###

The following sequences are shown together with reported Classification values.
Target: PDZ protein (GST-PDZ fusion) (Homo sapiens)
Construct: made in house; host or cells: E. coli (DH5alpha, BL21 or JM109)
Test: G' assay (10 uM PL peptide), results of TABLE 7 and TABLE 12
Type: binding
Settings: PDZ ENIGMA, PDZ Domain 1
Ends that are not written are not given here. * marks the point of attachment. Biotin = O=C1N[C@H]2[C@H](CS[C@H]2CCCCC(=O)*)N1
measured-attribute: Classification

- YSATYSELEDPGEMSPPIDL (Biotin-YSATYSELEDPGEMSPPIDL) [FceRlb]: 2 (A450 nm 1-2)
- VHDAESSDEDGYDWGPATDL (Biotin-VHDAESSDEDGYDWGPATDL) [zona occludens 3 (ZO-3)]: 1 (A450 nm 0-1)
- EVIGYIEKPGVETLEDSVF (Biotin-EVIGYIEKPGVETLEDSVF) [CDW125 (modified)]: 1 (A450 nm 0-1)
- GGGGGSGGGGGSGIESVKI [GLUR2 (glutamate receptor 2-modified)]: 1 (A450 nm 0-1)

###

Target: PDZ protein (GST-PDZ fusion) (Homo sapiens, UniProt Q9C0E4)
Construct: made in house; host or cells: E. coli (DH5alpha, BL21 or JM109)
Sequence (Q9C0E4 whole entry, the tested form may be a part): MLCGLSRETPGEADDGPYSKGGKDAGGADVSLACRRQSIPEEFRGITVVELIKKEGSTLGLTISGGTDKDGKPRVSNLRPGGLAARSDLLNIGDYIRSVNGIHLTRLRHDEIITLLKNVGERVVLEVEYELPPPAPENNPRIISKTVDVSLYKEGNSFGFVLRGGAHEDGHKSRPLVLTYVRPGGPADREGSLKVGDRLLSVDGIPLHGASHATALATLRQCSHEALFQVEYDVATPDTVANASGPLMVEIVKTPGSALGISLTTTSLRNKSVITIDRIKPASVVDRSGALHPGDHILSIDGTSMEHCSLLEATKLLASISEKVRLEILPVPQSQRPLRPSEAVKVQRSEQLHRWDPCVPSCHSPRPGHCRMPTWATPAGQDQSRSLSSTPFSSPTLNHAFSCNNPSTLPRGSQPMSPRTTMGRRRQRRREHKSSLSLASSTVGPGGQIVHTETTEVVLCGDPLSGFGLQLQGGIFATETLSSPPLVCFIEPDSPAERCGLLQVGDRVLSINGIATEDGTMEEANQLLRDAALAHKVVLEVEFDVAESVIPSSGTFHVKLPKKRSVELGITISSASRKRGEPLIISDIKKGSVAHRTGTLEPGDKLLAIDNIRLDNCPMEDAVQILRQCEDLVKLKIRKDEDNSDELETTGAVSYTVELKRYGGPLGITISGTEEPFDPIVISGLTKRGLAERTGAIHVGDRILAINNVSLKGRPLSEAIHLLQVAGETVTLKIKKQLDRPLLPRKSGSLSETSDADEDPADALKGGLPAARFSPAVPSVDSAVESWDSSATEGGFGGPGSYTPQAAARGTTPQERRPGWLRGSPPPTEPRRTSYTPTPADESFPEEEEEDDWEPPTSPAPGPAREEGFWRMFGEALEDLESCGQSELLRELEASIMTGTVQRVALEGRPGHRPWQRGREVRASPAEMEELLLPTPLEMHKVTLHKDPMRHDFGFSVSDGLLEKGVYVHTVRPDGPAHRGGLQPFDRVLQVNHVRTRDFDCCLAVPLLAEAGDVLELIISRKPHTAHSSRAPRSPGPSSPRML
Experiment: G' assay (10 uM PL peptide), results of TABLE 7 and TABLE 12
Assay type: binding
Settings: PDZ KIAA1719, PDZ Domain 6
Ends that are not written are not given here. * marks the point of attachment. Biotin = O=C1N[C@H]2[C@H](CS[C@H]2CCCCC(=O)*)N1
The following sequences are shown together with reported Classification values.
measured-attribute: Classification

* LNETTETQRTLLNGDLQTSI (Biotin-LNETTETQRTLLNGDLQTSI) [SSTR2 (somatostatin recepor 2)] | 1 (A450 nm 0-1)
* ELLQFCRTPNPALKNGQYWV (Biotin-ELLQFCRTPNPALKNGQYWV) | 5 (A450 nm of 4 more than 2× repeated)
* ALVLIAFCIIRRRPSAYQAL (Biotin-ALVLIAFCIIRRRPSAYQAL) [CD68] | 1 (A450 nm 0-1)
* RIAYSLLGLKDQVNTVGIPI (Biotin-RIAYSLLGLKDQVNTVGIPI) [ephrin A2] | 1 (A450 nm 0-1)
* QGDPALQDAGDSSRKEYFI (Biotin-QGDPALQDAGDSSRKEYFI) [Glycophorin C] | 1 (A450 nm 0-1)

###

Target: PDZ protein (GST-PDZ fusion) (Homo sapiens)
Construct: made in house; host or cells: E. coli (DH5alpha, BL21 or JM109)
Assay: G' assay (10 uM PL peptide), results of TABLE 7 and TABLE 12
Type: binding
Details: PDZ MUPP-1, PDZ Domain 13
Ends that are not written are not given here. * marks the point of attachment. Biotin = O=C1N[C@H]2[C@H](CS[C@H]2CCCCC(=O)*)N1
measured-attribute: Classification

• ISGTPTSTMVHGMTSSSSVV (Biotin-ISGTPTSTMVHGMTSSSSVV) [Clasp-2] = 1 (A450 nm 0-1)
• ARHRVTSYTSSSVNVSSNL (Biotin-ARHRVTSYTSSSVNVSSNL) [IL-8RB] = 1 (A450 nm 0-1)
• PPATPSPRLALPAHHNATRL (Biotin-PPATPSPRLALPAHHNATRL) [Na+/Pi cotransporter 2] = 1 (A450 nm 0-1)
• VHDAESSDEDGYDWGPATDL (Biotin-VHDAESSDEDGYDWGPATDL) [zona occludens 3 (ZO-3)] = 2 (A450 nm 1-2)
• A2AA_HUMAN (modified) (Biotin-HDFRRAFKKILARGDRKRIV; not fully specified) = 1 (A450 nm 0-1)
• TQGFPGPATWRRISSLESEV = 5 (A450 nm of 4 more than 2× repeated)
